Data origin: patent US8299077B2

Tested on: B cell receptor-mediated activation of B cells in human blood (CD69 expression)
PROTOCOL TEXT: Inhibition of B cell activation in whole blood measured by CD69 expression
Type: cell-based
SETTINGS: anti-IgM stimulation, 20 h, 50% decrease of CD69-positive cells that are also CD20-positive
pIC50: −log10 of the molar value.
METRIC NAME: pIC50

In the examples that follow, each entry is paired with its recorded pIC50.
COMPOUND	pIC50
Cn1cc(-c2cccc(-n3ncc4cc(C(C)(C)C)cc(F)c4c3=O)c2CO)cc(Nc2ccc(N3CC[N+](C)([O-])CC3)cn2)c1=O	5.65
Cn1cc(-c2cccc(-n3ccc4cc(C5CC5)cc(F)c4c3=O)c2CO)cc(Nc2ccc(OCCO)cn2)c1=O	7.03
CN1CCN(C)C(c2ccc(Nc3nc(-c4cccc(-n5ncc6cc(C(C)(C)C)cc(F)c6c5=O)c4CO)cn(C)c3=O)cc2)C1=O (stereo not drawn)	7.92
CNC(=O)C(C)(C)c1ccc(Nc2cc(-c3cccc(-n4ccc5cc(C6CC6)cc(F)c5c4=O)c3CO)cn(C)c2=O)nc1	7.48

(a) Cn1cc(-c2cccc(-n3ccc4cc(C(C)(C)O)cc(F)c4c3=O)c2CO)nc(Nc2cnn(CC(F)F)c2)c1=O
(b) Cn1cc(-c2cccc(-n3ccc4cc(C(C)(C)O)cc(F)c4c3=O)c2CO)cc(Nc2ccc(N3CCC(C)(O)CC3)cn2)c1=O
query: Which numeric pIC50 is bigger, that of a or that of b ? The response must carry the label of the picked entry.
result: b

###

Test system: B cell receptor-mediated activation of B cells in human blood (CD69 expression)
PROTOCOL TEXT: Inhibition of B cell activation in whole blood measured by CD69 expression
Assay type: cell-based
SETTINGS: anti-IgM stimulation, 20 h, 50% decrease of CD69-positive cells that are also CD20-positive
pIC50: −log10 of the molar value.
METRIC NAME: pIC50

In the examples that follow, each entry is paired with its recorded pIC50.
MOLECULE	TARGET OF ASSAY	REPORTED VALUE
CNCCOc1ccc(Nc2cc(-c3cccc(-n4ncc5cc(C(C)(C)C)cc(F)c5c4=O)c3CO)cn(C)c2=O)nc1 [Example I-88]	B cell receptor-mediated activation of B cells in human blood (CD69 expression)	8.05
Cn1cc(-c2cccc(-n3ccc4cc(C5CC5)cc(F)c4c3=O)c2CO)cc(Nc2ccc(C(C)(C)C(=O)O)cn2)c1=O [Example I-68]	B cell receptor-mediated activation of B cells in human blood (CD69 expression)	6.67

(I) CN1CCN(Cc2ccc(Nc3cc(-c4cccc(-n5ccc6cc(C7CC7)cc(F)c6c5=O)c4CO)cn(C)c3=O)nc2)CC1 [Example I-73]
(II) CCn1cc(Nc2nc(-c3cccc(-n4ccc5cc(C(C)(C)O)cc(F)c5c4=O)c3CO)cn(C)c2=O)cn1 [Example I-81]
(III) Cn1cc(-c2cccc(-n3ncc4cc(C(C)(C)C)cc(F)c4c3=O)c2CO)cc(NC2=NCCCO2)c1=O [Example I-44]
query: In this exercise, place the 3 molecules in ascending sequence of their recorded pIC50. Note for the reader: the ranking is given by listing the labels in the order requested.
result: III, I, II
(III: 5.76, I: 7.62, II: 7.89)

###

System: B cell receptor-mediated activation of B cells in human blood (CD69 expression)
PROTOCOL TEXT: Inhibition of B cell activation in whole blood measured by CD69 expression
Assay type: cell-based
SETTINGS: anti-IgM stimulation, 20 h, 50% decrease of CD69-positive cells that are also CD20-positive
METRIC NAME: IC50 (nM)

In the examples that follow, each entry is paired with its recorded IC50.
STRUCTURE AS SMILES	IC50 [nM]
CCC(O)(CC)c1cc(F)c2c(=O)n(-c3cccc(-c4cc(Nc5ccc(N6CCC(C)(O)CC6)cn5)c(=O)n(C)c4)c3CO)ccc2c1	27
Cn1cc(-c2cccc(-n3ccc4cc(C5CC5)cc(F)c4c3=O)c2CO)cc(Nc2ccc(N3CCNCC3)cn2)c1=O	57
Cn1cc(-c2cccc(-n3ccc4cc(C5CC5)cc(F)c4c3=O)c2CO)cc(Nc2ccc(N3CCC(C)(O)CC3)cn2)c1=O	18
CC(C)n1ccc(Nc2cc(-c3cccc(-n4ncc5cc(C(C)(C)C)cc(F)c5c4=O)c3CO)cn(C)c2=O)nc1=O	67

(1) Cn1cc(-c2cccc(-n3ncc4cc(C(C)(C)C)cc(F)c4c3=O)c2CO)cc(Nc2ccc(C(C)(C)C(=O)O)cn2)c1=O
(2) CCNCc1ccc(Nc2cc(-c3cccc(-n4ncc5cc(C(C)(C)C)cc(F)c5c4=O)c3CO)cn(C)c2=O)nc1
(3) CN(C)C(=O)C(C)(C)c1ccc(Nc2cc(-c3cccc(-n4ncc5cc(C(C)(C)C)cc(F)c5c4=O)c3CO)cn(C)c2=O)nc1
query: Sequence the entries by IC50, beginning with the highest number. Note for the reader: the ranking is given by listing the labels in the order requested.
result: 1, 3, 2

(1) COCCNCc1ccc(Nc2cc(-c3cccc(-n4ccc5cc(C6CC6)cc(F)c5c4=O)c3CO)cn(C)c2=O)nc1
(2) CN1CC(Oc2ccc(Nc3cc(-c4cccc(-n5ncc6cc(C(C)(C)C)cc(F)c6c5=O)c4CO)cn(C)c3=O)nc2)C1
(3) Cn1cc(-c2cccc(-n3ccc4cc(C5(C)CC5)cc(F)c4c3=O)c2CO)cc(Nc2ccc(C(=O)N3CCOCC3)cn2)c1=O
query: In this exercise, place the 3 compounds in ascending sequence of their recorded IC50. Note for the reader: the ranking is given by listing the labels in the order requested.
result: 2, 3, 1
(2: 10 nM, 3: 16 nM, 1: 37 nM)

(I) Cn1cc(-c2cccc(-n3ncc4cc(C(C)(C)C)cc(F)c4c3=O)c2CO)cc(Nc2ccc(N3CCNCC3)cn2)c1=O
(II) CN1CCN(c2ccc(Nc3cc(-c4cccc(-n5ccc6cc(N(C)C)cc(F)c6c5=O)c4CO)cn(C)c3=O)nc2)CC1
query: Which numeric IC50 is bigger, that of I or that of II ? The response must carry the label of the picked entry.
result: I

###

Test system: B cell receptor-mediated activation of B cells in human blood (CD69 expression)
PROTOCOL TEXT: Inhibition of B cell activation in whole blood measured by CD69 expression
Format: cell-based
SETTINGS: anti-IgM stimulation, 20 h, 50% decrease of CD69-positive cells that are also CD20-positive
METRIC NAME: IC50 (nM)

(1) CN1CC(Oc2ccc(Nc3cc(-c4cccc(-n5ccc6cc(C7CC7)cc(F)c6c5=O)c4CO)cn(C)c3=O)nc2)C1 [Example I-71]
(2) CC1CCN=C(Nc2cc(-c3cccc(-n4ncc5cc(C(C)(C)C)cc(F)c5c4=O)c3CO)cn(C)c2=O)O1 (stereo not shown) [Example I-49]
query: Which numeric IC50 is bigger, that of 1 or that of 2 ? The response must carry the label of the picked entry.
result: 2
(2: 3130 nM, 1: 39 nM)

(A) Cn1cc(-c2cccc(-n3ccc4cc(C5CC5)cc(F)c4c3=O)c2CO)cc(Nc2ccc(S(C)(=O)=O)cn2)c1=O [Example I-62]
(B) Cn1ccc(Nc2cc(-c3cccc(-n4ncc5cc(C(C)(C)C)cc(F)c5c4=O)c3CO)cn(C)c2=O)nc1=O [Example I-23]
query: // compare: A vs B , metric IC50, want the smaller The response must carry the label of the picked entry.
result: A

###

This listing pairs compounds with measured melting point.

In the examples that follow, each entry is paired with its recorded melting point.
STRUCTURE AS SMILES	melting point
Cn1cc(-c2cccc(-n3ncc4cc(C(C)(C)C)cc(F)c4c3=O)c2CO)cc(Nc2ccc(C(C)(C)C(=O)O)cn2)c1=O	218 to 220 °C
CCNCc1ccc(Nc2cc(-c3cccc(-n4ncc5cc(C(C)(C)C)cc(F)c5c4=O)c3CO)cn(C)c2=O)nc1	265 to 268 °C

Let us examine a further case.
query: Consider the compound Cn1cc(-c2cccc(-n3ncc4cc(C(C)(C)C)cc(F)c4c3=O)c2CO)cc(Nc2ccc(C(C)(C)O)cn2)c1=O and give its recorded melting point.
result: 200 to 205 °C

###

Tested on: B cell receptor-mediated activation of B cells in human blood (CD69 expression)
PROTOCOL TEXT: Inhibition of B cell activation in whole blood measured by CD69 expression
Assay type: cell-based
SETTINGS: anti-IgM stimulation, 20 h, 50% decrease of CD69-positive cells that are also CD20-positive
pIC50: −log10 of the molar value.
METRIC NAME: pIC50

COMPOUND	pIC50
Cn1cc(-c2cccc(-n3ncc4cc(C(C)(C)C)cc(F)c4c3=O)c2CO)cc(Nc2ccc(C3CCNCC3)cn2)c1=O	7.32
COCCNCc1ccc(Nc2cc(-c3cccc(-n4ncc5cc(C(C)(C)C)cc(F)c5c4=O)c3CO)cn(C)c2=O)nc1	8.10

(A) Cn1cc(-c2cccc(-n3ncc4cc(C(C)(C)C)cc(F)c4c3=O)c2CO)cc(Nc2ccc(CN3CCC(N)C3)cn2)c1=O (stereo not shown)
(B) Cn1cc(-c2cccc(-n3ccc4cc(C5CC5)cc(F)c4c3=O)c2CO)cc(Nc2ccc(C(C)(C)N)cn2)c1=O
query: // compare: A vs B , metric pIC50, want the smaller The response must carry the label of the picked entry.
result: A
